# subjectOfTest: Tpm4.2-containing actin microfilaments (Mus musculus)
# Construct: investigated in primary mouse embryonic fibroblast (PMEF) cells; endogenous in cells; host or cells: primary mouse embryonic fibroblast (PMEF) cells
# Sequence (Q6IRU2 whole entry): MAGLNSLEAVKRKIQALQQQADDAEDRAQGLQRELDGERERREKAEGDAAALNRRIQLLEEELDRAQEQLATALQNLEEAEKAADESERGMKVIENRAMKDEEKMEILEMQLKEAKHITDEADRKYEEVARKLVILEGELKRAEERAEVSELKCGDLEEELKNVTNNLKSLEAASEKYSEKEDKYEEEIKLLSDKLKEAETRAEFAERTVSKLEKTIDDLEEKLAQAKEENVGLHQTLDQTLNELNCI
# protocolText: Disruption of Tpm4.2-containing actin microfilaments in PMEF cells, images assessed visually
# Assay type: cell-based
# conditionContext: primary mouse embryonic fibroblast (PMEF) cells, 24 hours treatment, anti-tropomyosin antibody staining of Tpm4.2
# 1 = Filament Disruption (minimum test concentration at which filament disruption was observed) below 4 µM (exclusive); -1 = Filament Disruption (minimum test concentration at which filament disruption was observed) at/above 4 µM

- molecule: "CC(CO)(CO)NCCn1ccc2ccc(OCCc3ccccc3C(F)(F)F)cc21 [Compound 22]"
  subjectOfTest: "Tpm4.2-containing actin microfilaments (Mus musculus)"
  labelValue: 1
- molecule: "CC(C)(C)NCCn1ccc2ccc(OCCc3ccc(F)cc3)cc21 [Compound 10]"
  subjectOfTest: "Tpm4.2-containing actin microfilaments (Mus musculus)"
  labelValue: 1
- molecule: "COc1ccc(CCOc2ccc3ccn(CCNC(C)(CO)CO)c3c2)cc1 [Compound 21]"
  subjectOfTest: "Tpm4.2-containing actin microfilaments (Mus musculus)"
  labelValue: 1
- molecule: "CC(CO)(CO)NCCn1ccc2ccc(C(=O)NCc3ccc(F)cc3)cc21 [Compound 14]"
  subjectOfTest: "Tpm4.2-containing actin microfilaments (Mus musculus)"
  labelValue: 1
- molecule: "Cc1ccccc1CCOc1ccc2ccn(CCNC(C)(CO)CO)c2c1 [Compound 16]"
  subjectOfTest: "Tpm4.2-containing actin microfilaments (Mus musculus)"
  labelValue: -1
- molecule: "Cc1cccc(CCOc2ccc3ccn(CCNC(C)(CO)CO)c3c2)c1 [Compound 17]"
  subjectOfTest: "Tpm4.2-containing actin microfilaments (Mus musculus)"
  labelValue: 1
- molecule: "Cc1ccc(CCOc2ccc3ccn(CCNC(C)(CO)CO)c3c2)cc1 [Compound 18]"
  subjectOfTest: "Tpm4.2-containing actin microfilaments (Mus musculus)"
  labelValue: -1
- molecule: "COCC(C)(COC)NCCn1ccc2ccc(OCCc3ccc(F)cc3)cc21 [Compound 12]"
  subjectOfTest: "Tpm4.2-containing actin microfilaments (Mus musculus)"
  labelValue: -1

###

# subjectOfTest: Tpm4.2-containing actin microfilaments (Mus musculus)
# Construct: investigated in primary mouse embryonic fibroblast (PMEF) cells; endogenous in cells; host or cells: primary mouse embryonic fibroblast (PMEF) cells
# protocolText: Disruption of Tpm4.2-containing actin microfilaments in PMEF cells, images assessed visually
# Assay type: cell-based
# conditionContext: primary mouse embryonic fibroblast (PMEF) cells, 24 hours treatment, anti-tropomyosin antibody staining of Tpm4.2
Could you label it rule met if measured Filament Disruption (minimum test concentration at which filament disruption was observed) is 4 µM or higher, and rule not met otherwise?

- smilesRecord: "CC(CO)(CO)NCCn1ccc2ccc(C(=O)OCc3ccc(F)cc3)cc21"
  subjectOfTest: "Tpm4.2-containing actin microfilaments (Mus musculus)"
  labelValue: "rule met"
- smilesRecord: "COc1ccccc1CCOc1ccc2ccn(CCNC(C)(CO)CO)c2c1"
  subjectOfTest: "Tpm4.2-containing actin microfilaments (Mus musculus)"
  labelValue: "rule met"
- smilesRecord: "COc1cccc(CCOc2ccc3ccn(CCNC(C)(CO)CO)c3c2)c1"
  subjectOfTest: "Tpm4.2-containing actin microfilaments (Mus musculus)"
  labelValue: "rule not met"
- smilesRecord: "Fc1ccc(CCOc2ccc3ccn(CCCN4CCOCC4)c3c2)cc1"
  subjectOfTest: "Tpm4.2-containing actin microfilaments (Mus musculus)"
  labelValue: "rule met"
- smilesRecord: "Cc1ccc(CCOc2ccc3ccn(CCNC(C)(CO)CO)c3c2)cc1C"
  subjectOfTest: "Tpm4.2-containing actin microfilaments (Mus musculus)"
  labelValue: "rule not met"
- smilesRecord: "CC(CO)(CO)NCCn1ccc2ccc(NCCc3ccc(F)cc3)cc21"
  subjectOfTest: "Tpm4.2-containing actin microfilaments (Mus musculus)"
  labelValue: "rule not met"
- smilesRecord: "CC(C)(CO)NCCn1ccc2ccc(OCCc3ccc(F)cc3)cc21"
  subjectOfTest: "Tpm4.2-containing actin microfilaments (Mus musculus)"
  labelValue: "rule not met"
- smilesRecord: "C[C@@H](CO)NCCn1ccc2ccc(OCCc3ccc(F)cc3)cc21"
  subjectOfTest: "Tpm4.2-containing actin microfilaments (Mus musculus)"
  labelValue: "rule not met"
- smilesRecord: "C[C@H](CO)NCCn1ccc2ccc(OCCc3ccc(F)cc3)cc21"
  subjectOfTest: "Tpm4.2-containing actin microfilaments (Mus musculus)"
  labelValue: "rule not met"
- smilesRecord: "CC(CO)(CO)NCCn1ccc2ccc(OCCc3ccc(F)c(F)c3)cc21"
  subjectOfTest: "Tpm4.2-containing actin microfilaments (Mus musculus)"
  labelValue: "rule not met"
